Measured values drawn from patent US20040214784A1 for this set.

assay-comment: Half-lives of hydrolysis of the prodrugs in phosphate buffer at pH 7.4
condition-details: pH 7.4, Half-life of hydrolysis, Buffer, bis to mono, phosphate buffer at ph 7.4, bis to mono
property-measured: half-life (h)
Value expressed in h; do not type the unit.

What measured half-life goes with Nc1nc2c(ncn2COCCOC(=O)COCC(=O)OCCOCn2cnc3c(=O)[nH]c(N)nc32)c(=O)[nH]1 ?
10

* * *

assay-comment: Half-lives of hydrolysis of the prodrugs in phosphate buffer at pH 7.4
condition-details: pH 7.4, Half-life of hydrolysis, Buffer (to mono), phosphate buffer at ph 7.4, hydrolysis to mono
# maps each entry to its half-life
Value expressed in h; do not type the unit.

// known answers, use as guide
| compound | half-life (h) |
| --- | --- |
| O=C(COCCOCCO)Nc1ccn(C2CCC(COC(=O)COCCOCCO)O2)c(=O)n1 (stereo not drawn) | 20 |
| COCCOCC(=O)OCn1cc(F)c(=O)n(COC(=O)COCCOC)c1=O | 1.47 |

What measured half-life goes with COCCOCCOCC(=O)OCn1cc(F)c(=O)n(COC(=O)COCCOCCOC)c1=O ?
1.47
